system: MDA-N; assay: NCI tumour cell line growth inhibition, 48 h
TGI values by entry
Answer format: numeric, µM implied, no suffix.

COc1ccc(P2(=S)Oc3ccc(C(c4ccccc4)(c4ccccc4)c4ccccc4)cc3O2)cc1 (centres undefined)
32.7
CC1(C)C(OC(=O)c2ccccc2)C[C@]23CCC[C@](C)(C[C@@H](O)C12)C3 (some centres undefined)
36.8

Here is another compound to look at.
Qu. Using the record for N#Cc1c(N)nc(Nc2cccc3ccccc23)c(C#N)c1C#N , report its TGI.
Ans. 4

----------
system: RPMI-8226 leukemia; test: NCI tumour cell line growth inhibition, 48 h
TGI values by entry

Below: 3 compounds and their reported TGI.
CN(C(=O)c1ccccc1)C1CCCC(=O)CC1 (stereo unspecified)
> 100 µM
Cc1nc2cc(-n3c(-c4ccc(F)cc4)nc4ccccc4c3=O)ccc2n1Cc1ccccc1
39.7 µM
COc1ccc(S(=O)(=O)Nc2cc(/C=C\c3cc(OC)c(OC)c(OC)c3)cc(OC)c2OC)cc1
13.2 µM

Qu. Fill in the recorded TGI for this compound, with RPMI-8226 leukemia as test system: CCCCCCc1nn2c(-c3ccncc3)nnc2s1
Ans. > 10 µM
